test system: Candida albicans; conditions: 20 µM
Description: Antifungal activity against Candida albicans ATCC 90028 (CO-ADD:FG_001); MIC in YNB media using NBS plates, by OD630
Entries with a potency or affinity are not part of this list.

| molecule | scale unit | Inhibition |
| --- | --- | --- |
| Sc1nccn1-c1ccccc1Cl | % | 3.82 |
| CN(C)N1C(=O)c2c(Cl)c(Cl)c(Cl)c(Cl)c2C1=O | % | 1.54 |
| O=C(c1ccccc1)C1C(c2ccccc2)C1[N+](=O)[O-] (centres undefined) | % | 7.18 |
| O=C1NC(=S)S/C1=C\c1ccccc1C(=O)O | % | 14.4 |

====

test system: Cryptococcus neoformans; details: Concentration 20 uM; ASSAY_TEST Inhibition of Fungal Growth; detection method Resazurin; Absorption (OD600-OD570); plate type 384well; NBS; CORNING #3640
Description: Antifungal activity against Cryptococcus neoformans H99 ATCC 208821 (CO-ADD:FG_002); MIC in YNB media using NBS plates, by Resazurin OD(600-570)
Measured potencies and affinities stand elsewhere.
Catalogue of compounds with associated Inhibition

| compound | test target | Inhibition (%) |
| --- | --- | --- |
| CC12C(=O)N(c3nccs3)C(=O)C1(C)C1CCC2O1 (stereo not drawn) | Cryptococcus neoformans | -13.24 |
| Clc1nnc(NC2CCCCC2)c(Cl)c1Cl | Cryptococcus neoformans | -9.26 |
| C=C(C)C(=O)Nc1ccc(NC(C)C)cc1 | Cryptococcus neoformans | -6.96 |

====

system: Escherichia coli; assay: Antibacterial activity against Escherichia coli ATCC 25922 (CO-ADD:GN_001); MIC in CAMBH media using NBS plates, by Resazurin F(560/590); type: functional; settings: Concentration 20 uM, ASSAY_TEST Inhibition of Bacterial Growth, detection method Resazurin, Fluorescence (ex560/em590), MEDIA CAMHB, plate type 384well, CORNING #3640, time 18 hr
Catalogue of compounds with associated Inhibition

| compound | Inhibition (%) |
| --- | --- |
| CC1=CC(=O)C(/C(C)=N/c2ccccc2Cl)C(=O)O1 (stereo not given) | -12.7 |
| Cc1c(CCO)c(=O)n2n1CCCC2 | -10.48 |
| CCCCCC(=O)N1CCCC1 | 4.47 |
| CC(C)NC(=O)Nc1cccc(Cl)c1 | 6.41 |
| NS(=O)(=O)c1cc2c(cc1Cl)NC(Cc1ccccc1)NS2(=O)=O (stereo not given) [BENZYLHYDROCHLOROTHIAZIDE] | 13.54 |
| CCOC(=O)c1csc(-c2ccc(COC(=O)c3ccccc3)o2)n1 | -0.69 |
| Cn1cnc([N+](=O)[O-])c1N=C(N)N | 11.15 |
| Nc1ccc(C(=O)c2cccs2)cn1 | 26.4 |
| COc1cc(O)c(C(=O)/C=C/c2ccccc2)c(OC)c1 | 2.45 |
| Cc1nnc(-n2cccc2)s1 | 7.04 |
| CCCCC(=O)N(CCC)CCC | 10.06 |
| CCCCOc1ccc(OC(=O)Nc2cc(Cl)ccc2OC)cc1 | 2.93 |
| NC(=O)Cc1ccc2c(c1)[nH]c1ccccc12 | 7.64 |
| CCOC(=O)C1CC(C)=C(C)CC1C(=O)O (stereo not given) | 5.04 |
| c1ccc(CSc2nc3c[nH]cnc-3n2)cc1 | 6.08 |
| COc1cc(S(N)(=O)=O)c(OC)cc1N | 11.54 |
| O=C(O)CCC1(c2ccccc2)NC(=O)NC1=O (stereo not given) | 7.41 |
| CNC(=O)OCN1C(=O)C2CC=CCC2C1=O (stereo not given) | 10 |
| O=C(O)CSc1nc2ccccc2s1 | 3.19 |
| CC(C)c1ccc(-c2nc3ccccc3s2)cc1 | 4.01 |
| COc1ccc(NC(=O)CC(C)=O)c(OC)c1 | 1.4 |
| CCOC(=O)Nc1c(Cl)n(C)c(=O)n(C)c1=O | -16.55 |
| Cc1ccc(/C=C2\CCOC2=O)cc1 | 3.05 |
| CC1=C(C#N)C(C)(C)C(C#N)=C(C)N1 | 8.21 |
| Cc1cc2nc(-c3ccccn3)c(-c3ccccn3)nc2cc1C | 8.69 |
| COc1ccc(NC2=CC(=S)NC(C)(C)C2)cc1 | 12.98 |
| CCCCCc1cc(O)nc(S)n1 | 3.05 |
| CC(C)=CCC/C(C)=C\C(N)=O | 11.31 |
| CC(=O)Nc1cccc(NC(C)=O)n1 | 17.6 |
| CS(=O)(=O)Nc1nc2ccccc2[nH]1 | -1.14 |
| O=C1NC(=S)S/C1=C\c1ccccc1C(=O)O | 1.72 |
| NNC(=O)c1nnsc1-c1csnn1 | -18.51 |
| CCOc1ccc(Nc2c3ccccc3nc3ccccc23)cc1 | -17.49 |
| O=C(O)CCC(=O)OCCN(Cc1ccc(Oc2ccc([N+](=O)[O-])cc2)cc1)C(=O)C(Cl)Cl | -4.03 |
| O=C(O)C1CCC(=O)N1C(=O)OCc1ccccc1 (stereo not given) | 8.61 |
| CC(=O)Nc1ccc(S(=O)(=O)N=S(C)C)cc1 | 5.54 |
| Cc1ccc(C)c(-n2c(-c3ccc(Br)cc3)cs/c2=N\C(=O)c2ccccc2F)c1 | 6.4 |
| CC(=O)Nc1nc(C)c(CCCOc2ccc([N+](=O)[O-])cc2)c(O)n1 | 5.24 |
| O=C(O)c1nc2nc(Cl)c(Cl)nc2[nH]1 | 0.88 |
| CC(=O)/C=C(\C)Nc1ccccc1O | 7.16 |
| Clc1cc2c(c(CSc3nc4ccccc4n4cccc34)c1)OCOC2 | -3.64 |
| CC1=NCC(C)c2ccccc21 (stereo not given) | 9.51 |
| Cc1cc(NC(=O)OC(C)C)ccc1-c1ccc(NC(=O)OC(C)C)cc1C | -21.51 |
| CCOc1ccc(/C=C2\NC(=S)NC2=O)cc1 | -3.24 |
| CC1(C)C2CCC(CN=C(N)CSS(=O)(=O)O)C1C2 (stereo not given) | 1.93 |

====

tested on: Escherichia coli; assay: Antibacterial activity against Escherichia coli ATCC 25922 (CO-ADD:GN_001); MIC in CAMBH media using NBS plates, by Resazurin F(560/590); format: functional; conditions: Concentration 20 uM, ASSAY_TEST Inhibition of Bacterial Growth, detection method Resazurin, Fluorescence (ex560/em590), MEDIA CAMHB, plate type 384well, CORNING #3640, time 18 hr
Each entry below lists one item and its recorded Inhibition value.

| molecule | Inhibition, % |
| --- | --- |
| N#C/C(=C\c1ccc[nH]1)C(=O)c1ccccc1 | 0.79 |
| O=C1OCC/C1=C\OCCCO/C=C1\CCOC1=O | -5.06 |
| CC(C)C(=O)Nc1cccnc1 | 9.68 |
| Cc1c(C(C)(C(=O)O)c2c(C)n(C)c3ccccc23)c2ccccc2n1C | 2.78 |
| OC(COc1cccc2ccccc12)CN1CCN(c2ccccc2Cl)CC1 (centres undefined) | -13.55 |
| OC(C#Cc1ccccc1)(c1ccccc1)c1ccccc1 | -2.05 |
| CC(C)Oc1ccc(C(=O)O)cc1 | 5.58 |
| CN1CCC(=C2c3ccccc3C(O)c3ccccc32)CC1 (centres undefined) | 15.16 |
| CCCN(CCC)c1ccc(/C=C/c2ccc3cc(OCC)ccc3n2)cc1 | -3.61 |
| CC(=O)CC[N+](C)(C)C.[I-] | 1.86 |
| Cc1cc2nc3ccc(N(C)C)cc3[s+]c2cc1N.[Cl-] [TOLONIUM CHLORIDE] | 2.47 |
| CC(C)(C)CC(C)(C)n1nnnc1N | 15.8 |
| CN(C)c1ccc(/C=N/NC(=O)c2cnc3ccccc3c2)cc1 | 3.71 |
| Cc1cc2cc3n(c2nn1)N=C(Cl)CC3 | -0.69 |
| CCOC(=O)Nc1c2ccccc2nc2ccccc12 | 4.72 |
| Cc1cc2c3ccccc3ncn2n1 | 5.54 |
| Cc1c(NC(=O)Nc2c(Cl)cccc2Cl)c(=O)n(-c2ccccc2)n1C | 6.32 |
| CC(=O)CC(=O)Nc1ccc2ccccc2c1 | 5.41 |
| O=C1CCC(NC(=O)c2ccccc2)C(=O)N1 (centres undefined) | 7.42 |
| OCc1nnn(-c2ccccc2)c1CO | 7.14 |
| c1ccc(Sc2ncnc3ccccc23)cc1 | 12.91 |
| CC(=O)NS(=O)(=O)c1ccc2sc(C)nc2c1 | 8.35 |
| Nc1ccc(C(=O)C(=O)c2ccc(N)cc2)cc1 | -16.8 |
| c1ccc(-c2cc3ccccc3[nH]2)cc1 | 16.97 |
| O=C(/C=C/c1ccccc1Cl)c1ccc(O)cc1 | -16.06 |
| O=C1CCCC1C(=O)Nc1ccc2ccccc2c1 (centres undefined) | -4.09 |
| CC(=O)Oc1ccc(OC(C)=O)c2c1CC(C)=C(C)C2 | 12.77 |
| COc1ccccc1N=NNc1ccccc1OC | 3.88 |
| S=C1N(c2ccccc2)CN(C2CCCCC2)CN1c1ccccc1 | -2.84 |
| O=S(=O)(c1ccc2c(c1)CCCN2)N1CCC[C@H]2CCCC[C@@H]21 | 3.15 |
| CCOC(=O)c1c(C)nc(C)c(C(=O)OCC)c1-c1cccnc1 | -4.27 |
| Cc1cccc(C(O)C(O)c2cccc(C)n2)n1 (centres undefined) | 8.35 |
| c1cc(-n2nnc3cnccc32)ccn1 | 12.03 |
| CC1=CC(C)(C)Nc2ccc(Cc3ccc4c(c3)C(C)=CC(C)(C)N4)cc21 | -20.49 |
| Clc1[nH]cnc2nccc1-2 | 0.3 |
| CC(C)(C)N1CC(OC(N)=O)C1 | 8.01 |
| Sc1cnnc2ccccc12 | -15.13 |
| O=C1NC(=O)N2CCSC2(Cc2ccccc2)N1 (centres undefined) | -4.61 |
| Cn1c(=O)c2c(nc(OCCc3ccccc3)n2C)n(C)c1=O | 8.83 |
| CCn1c(=O)n(C)c2c(=O)n(C)c(=O)n(C)c21 | 11.39 |
| Clc1nnc(NC2CCCCC2)c(Cl)c1Cl | 15.05 |
| CC(=O)c1cc2c(cc1C)CCCC2(C)C | 11.58 |
| Oc1ccc(-c2nc3ccccc3s2)c(O)c1 | 5.22 |
| CC(C)n1cnc2c(S)ncnc21 | 12.98 |
